self-cleavage values, listed per item
B1: OR4K15 (parent)
chain: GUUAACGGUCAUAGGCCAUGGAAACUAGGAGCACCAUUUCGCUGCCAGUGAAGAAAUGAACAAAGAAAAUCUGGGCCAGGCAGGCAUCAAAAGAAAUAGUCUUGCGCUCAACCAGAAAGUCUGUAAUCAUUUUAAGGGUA

- Variants of: B1
- Test description: self-cleavage, relative activity (ratio to wild type); higher = more cleavage; in vitro, sequencing; the parent is a self-cleaving ribozyme

# Variant spec, self-cleavage
rows = [
    ("A62G A64U", 1.23),
    ("C112U A140U", 0.01),
    ("C42A G79U", 0.02),
    ("G15C A67G", 1.63),
    ("A68G A126U", 0.66),
    ("A118U A126G", 0.17),
    ("U19C U108C", 0.02),
    ("G58U A126G", 0.8),
    ("A94G U131C", 0.66),
    ("A54G A125G", 0.81),
    ("G7U A111G", 0),
    ("A13U A129G", 1.57),
    ("U38G A91G", 0.38),
    ("U70A A117G", 0.03),
    ("U49A", 1.05),
    ("C46U U122A", 1.22),
    ("A5G A90G", 1.11),
    ("A62G U103C", 0.98),
    ("A22G A86G", 1.31),
    ("G58U U102C", 1.68),
    ("U19C A62C", 1.65),
    ("A13G G136A", 0.95),
    ("U39A C85G", 1.07),
    ("U9C U108C", 0.02),
    ("A64U A117U", 1.07),
    ("A64C U103A", 0.14),
    ("A11U A30G", 1.23),
    ("U38A A91G", 1.4),
    ("A22G U102A", 0.32),
    ("G48A U49C", 1.73),
    ("G74A A95G", 0.35),
    ("A62G G80C", 0.13),
    ("G21U A90G", 1.16),
    ("A56G A114C", 0.02),
    ("U39A A98G", 1.11),
    ("G8A U103C", 1.61),
    ("G7U A117G", 1.7),
    ("U19A U131G", 2.03),
    ("A54G U108C", 0.02),
]
